# Tested on: CCRF-CEM leukemia
# protocol-notes: NCI-60 one-dose screen, 48 h (100 = growth as untreated, 0 = no growth, -100 = all killed)
# study-conditions: 10 µM unless noted
The panel holds about 83,000 compounds, 20% with a hit somewhere; the sample as a whole holds those more often.
Entries annotated with measured growth
Kindly provide the numeric value in % only, without the unit symbol.

Solved entries:
                                   molecule   target_or_system  recorded_measurement
0  CC/C=C\C[C@H](O)C/C=C1/C(=O)C=C[C@@H]1C/C=C\CCCC(=O)NC  CCRF-CEM leukemia                 -14.6
1  O=S(=O)(Nc1ccc(F)c(Cl)c1)c1ccc(-c2cnc(C3CC3)o2)cc1  CCRF-CEM leukemia                  19.6
2  COC(=O)[C@H](C(C)C)n1c(=O)c2cc(OC)c(OC)cc2c2cnc3[nH]ccc3c21  CCRF-CEM leukemia                    39
3         CCCCCCCCSC1=CC(=O)C(OC)=C(OC)C1=O  CCRF-CEM leukemia                 -15.8
4  CCn1cc2c(cc1=O)-c1nc3ccccc3c3ccnc(c13)C2=O  CCRF-CEM leukemia                   104

Enter reported growth observed with CCRF-CEM leukemia for `O=C1c2cccnc2C(=O)c2c1c(C(=O)OCCN1CCOCC1)c1ccccn21` 8.9

Can you look up growth on CCRF-CEM leukemia for N#CC1=C(N)Oc2c(ccc3ccccc23)C1c1cccs1 (stereo not given) ? 5.17

Form field - read-out: growth; system: CCRF-CEM leukemia; submitted item: `Cc1cc(Nc2nc(N3CCN(C)CC3)nc3ccccc23)n[nH]1` 65.3

Hello, I am looking for reported growth with CCRF-CEM leukemia for COc1cc(C2CC(=O)Nc3c2c(C)nn3-c2nc3ccccc3[nH]2)cc(OC)c1OC (stereo not given) . Could you help? 32

What value of growth on CCRF-CEM leukemia does Nc1nc2c(c3ncccc13)C(c1cccc(Br)c1)Cc1ncccc1-2 (stereo not given) have? 8.84
